conditions: in n-butanol, 300.15 K

>  <mol-smiles>
COC1=C(OC)C(=O)C(C/C=C(\C)CC/C=C(\C)CC/C=C(\C)CC/C=C(\C)CC/C=C(\C)CC/C=C(\C)CC/C=C(\C)CC/C=C(\C)CC/C=C(\C)CCC=C(C)C)=C(C)C1=O

>  <solubility (mole fraction)>
0.0011

$$$$

* * *

conditions: in n-butanol, 320.15 K

>  <mol-smiles>
COC1=C(OC)C(=O)C(C/C=C(\C)CC/C=C(\C)CC/C=C(\C)CC/C=C(\C)CC/C=C(\C)CC/C=C(\C)CC/C=C(\C)CC/C=C(\C)CC/C=C(\C)CCC=C(C)C)=C(C)C1=O

>  <solubility (mole fraction)>
0.0934

$$$$
